target: Recombinant human Cbl-b (aa 36-427) (Homo sapiens (Human)); assay: Cbl-b Biochemical Assay (TR-FRET); settings: read-out: TR-FRET hCbl-b IC50
Sequence (Q13191 36-427): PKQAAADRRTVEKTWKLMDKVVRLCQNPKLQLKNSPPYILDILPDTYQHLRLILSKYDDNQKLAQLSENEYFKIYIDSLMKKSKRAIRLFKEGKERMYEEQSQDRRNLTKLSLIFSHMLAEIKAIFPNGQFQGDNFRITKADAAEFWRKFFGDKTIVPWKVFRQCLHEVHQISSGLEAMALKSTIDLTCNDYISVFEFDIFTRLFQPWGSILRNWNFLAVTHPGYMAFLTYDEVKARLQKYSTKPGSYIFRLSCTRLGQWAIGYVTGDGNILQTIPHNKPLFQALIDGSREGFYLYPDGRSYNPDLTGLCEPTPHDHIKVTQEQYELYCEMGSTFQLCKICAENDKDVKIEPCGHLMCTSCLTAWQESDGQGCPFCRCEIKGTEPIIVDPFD
pIC50: −log10 of the molar value.
# Lookup of reported pIC50 keyed by entry
property.measured: pIC50

compound: CCNc1cc(-c2ccccc2-c2nncn2C)cc(N2Cc3c(cc(CO)cc3C(F)(F)F)C2=O)n1
measured.value: ≥ 6.70
--
compound: CCNc1cc(-c2nn(CC(C)C)cc2-c2nncn2C)cc(N2Cc3c(cccc3C(F)(F)F)C2=O)n1
measured.value: 4.30 to 5.00
--
compound: CN1CCC[C@H]1COCc1cc2c(c(C(F)(F)F)c1)CN(c1cc(-c3ccc(F)cc3-c3nncn3C)cc(C3CC3)n1)C2=O
measured.value: ≥ 6.70
--
compound: O=C1c2cc(CNCC3(O)CCC3)cc(C(F)(F)F)c2CN1c1ccccc1
measured.value: 4.30 to 5.00
--
compound: COc1cc2c(cc1CNCC1CCC1)C(=O)N(c1cc(-c3ccc(C#N)cc3-c3nncn3C)cc(C3CC3)n1)C2
measured.value: 5.00 to 6.00
--
compound: Cn1cnnc1-c1cc(C#N)ccc1-c1cc(C2CC2)nc(N2Cc3c(F)cc(CNCC4CCC4)cc3C2=O)c1
measured.value: ≥ 6.70
--
compound: CO[C@H](C)CNCc1ccc2c(c1)C(=O)N(c1cc(-c3ccc(C#N)cc3-c3nncn3C)cc(C3CC3)n1)C2
measured.value: ≥ 6.70
--
compound: Cn1cnnc1-c1cc(C#N)ccc1-c1cc(C2CC2)nc(N2Cc3ccc(CNCC4COC4)cc3C2=O)c1
measured.value: ≥ 6.70
--
compound: CCNc1cc(-c2ccc(C#N)cc2-c2nncn2C)cc(N2Cc3c(cc([C@@H](O)CN(C)C)cc3C(F)(F)F)C2=O)n1 (single isomer, unassigned)
measured.value: ≥ 6.70
--
compound: Cn1cnnc1-c1cc(C#N)ccc1-c1cc(C2CC2)nc(N2Cc3ccc([C@H]4COC[C@@H](C5CCC5)N4)cc3C2=O)c1 (stereo in doubt) [AOR-1]
measured.value: ≥ 6.70
--
compound: CCNc1cc(-c2ccc(CO)cc2-c2nncn2C)cc(N2Cc3c(cccc3C(F)(F)F)C2=O)n1
measured.value: ≥ 6.70
--
compound: Cn1cnnc1-c1cc(F)ccc1-c1cc(C2CC2)nc(N2Cc3ccc(CNCC4(O)CCC4)cc3C2=O)c1
measured.value: ≥ 6.70

* * *

Parameter: pIC50. Scope: all listed entries.
target: Recombinant human Cbl-b (aa 36-427) (Homo sapiens (Human)); assay: Cbl-b Biochemical Assay (TR-FRET); settings: read-out: TR-FRET hCbl-b IC50
pIC50: −log10 of the molar value.
property.measured: pIC50

compound: CC(=O)c1cc2c(c(C(F)(F)F)c1)CN(c1cc(-c3ccccc3-c3nncn3C)cc(C3CC3)n1)C2=O [AFS-1]
measured.value: ≥ 6.70
--
compound: CCNc1cc(-c2ccccc2-c2nncn2C)cc(N2Cc3c(cc(CN4CC[C@@H](O)C4)cc3C(F)(F)F)C2=O)n1 [AT-1]
measured.value: ≥ 6.70
--
compound: Cn1cnnc1-c1cc(C#N)ccc1-c1cc(C2CC2)nc(N2Cc3cc(Cl)c(CO)cc3C2=O)c1 [AKN-12]
measured.value: ≥ 6.70
--
compound: Cn1cnnc1-c1ccccc1-c1cc(C2CC2)nc(N2Cc3cc(F)c(CNCC4(O)CCC4)cc3C2=O)c1 [AEI-5]
measured.value: ≥ 6.70
--
compound: Cn1cnnc1-c1cc(C#N)ccc1-c1cccc(N2Cc3c(cc(CO)cc3C(F)(F)F)C2=O)c1 [ADG-3]
measured.value: ≥ 6.70
--
compound: CCNc1cnc(N2Cc3c(cc(CO)cc3C(F)(F)F)C2=O)cc1-c1ccc(F)cc1-c1nncn1C [AHN-9]
measured.value: 4.30 to 5.00
--
compound: CCOc1cc(-c2ccc(Cl)cc2-c2nncn2C)cc(N2Cc3ccc(CNCC4(O)CCC4)cc3C2=O)n1 [AHT-2]
measured.value: ≥ 6.70
--
compound: Cn1cnnc1-c1cnn(C)c1-c1cc(O)nc(N2Cc3c(cccc3C(F)(F)F)C2=O)c1 [AAO-1]
measured.value: 4.30 to 5.00
--
compound: CCNc1cc(-c2c(-c3nncn3C)cnn2C)cc(N2Cc3c(cc(COCC4(O)CCC4)cc3C(F)(F)F)C2=O)n1 [AED-2]
measured.value: ≥ 6.70
--
compound: C[C@@H](NC1COC1)c1ccc2c(c1)C(=O)N(c1cc(-c3ccc(C#N)cc3-c3nncn3C)cc(C3CC3)n1)C2 [AOC-2]
measured.value: ≥ 6.70
--
compound: CCNc1cc(-c2ccccc2-c2nncn2C)cc(N2Cc3c(cc(CN[C@H]4CCC[C@H]4O)cc3C(F)(F)F)C2=O)n1 [AR-1]
measured.value: ≥ 6.70
--
compound: Cn1cnnc1-c1cc(C#N)ccc1-c1cccc(N2Cc3ccc(CO)cc3C2=O)c1 [AJD-2]
measured.value: 5.00 to 6.00
